# Tested on: P. aeruginosa (IFO 3445)
# ASSAY TEXT: Minimum inhibitory concentration (MIC), standard method of the Japan Society of Chemotherapy
# Assay type: cell-based
# CONDITION INFO: Pseudomonas aeruginosa, IFO3445

MOLECULE | MIC [µg/mL]
O=C(O)c1cn(C2CC2)c2cc(N3CCOC3)c(F)cc2c1=O [Compound 57] | 0.78
CCn1cc(C(=O)O)c(=O)c2cc(F)c(OC3CCN(C)CC3)cc21 [Compound 11] | 12.5
CN(C)CC1CN(c2cc3c(cc2F)c(=O)c(C(=O)O)cn3C2CC2)CO1 (stereo not drawn) [Compound 60] | 1.56
CC1CN(c2cc3c(cc2F)c(=O)c(C(=O)O)cn3C2CC2)CO1 (stereo not drawn) [Compound 59] | 0.78
O=C(O)c1cn(C2CC2)c2c(F)c(N3CCOC3)c(F)cc2c1=O [Compound 66] | 1.56
O=C(O)c1cn(C2CC2)c2c(F)c(N3CCOC3)c(F)c(F)c2c1=O [Compound 72] | 3.13
Cl.O=C(O)c1cn(-c2ccc(F)cc2F)c2nc(OC3CCNC3)c(F)cc2c1=O (stereo not drawn) [Compound 10] | 3.13
Cl.O=C(O)c1cn(C2CC2)c2c(F)c(OC3CCNC3)c(F)cc2c1=O (stereo not drawn) [Compound 2] | 0.78
O=C(O)c1cn(C2CC2)c2c(F)c(N3CCCOC3)c(F)cc2c1=O [Compound 76] | 3.13

====

Property: MIC; scope: individual compounds
# System: P. aeruginosa (IFO 3445)
# ASSAY TEXT: Minimum inhibitory concentration (MIC), standard method of the Japan Society of Chemotherapy
# Assay type: cell-based
# CONDITION INFO: Pseudomonas aeruginosa, IFO3445
REPORTED ENDPOINT: MIC (µg/mL)

COMPOUND | REPORTED ENDPOINT | RESULT VALUE
O=C(O)c1cn(C2CC2)c2c(F)c(N3COC(CO)C3)c(F)cc2c1=O (centres unmarked) | MIC | 0.78
CC1CN(c2c(F)cc3c(=O)c(C(=O)O)cn(C4CC4)c3c2F)CO1 (centres unmarked) | MIC | 0.78
CC1COCN1c1c(F)cc2c(=O)c(C(=O)O)cn(C3CC3)c2c1F (centres unmarked) | MIC | 3.13
CC1COc2c(OC3CCN(C)CC3)c(F)cc3c(=O)c(C(=O)O)cn1c23 (centres unmarked) | MIC | 12.5
CN(C)CC1CN(c2c(F)cc3c(=O)c(C(=O)O)cn(C4CC4)c3c2F)CO1 (centres unmarked) | MIC | 1.56

====

Property: MIC; scope: individual compounds
# Test system: S. aureus 209 P (IFO 12732)

COMPOUND | RESULT UNITS | MIC
CC1COCN1c1c(F)cc2c(=O)c(C(=O)O)cn(C3CC3)c2c1F (stereo not drawn) | µg/mL | 0.2
Cl.Nc1c(F)c(OC2CCNC2)c(F)c2c1c(=O)c(C(=O)O)cn2C1CC1 (stereo not drawn) | µg/mL | 0.39
O=C(O)c1cn(C2CC2)c2cc(N3CCOC3)c(F)cc2c1=O | µg/mL | 0.1
